Cited source for all entries: PubChem BioAssay AID1578

test name: NOD1 signaling inhibitors, primary screen, cell-based, luminescence, uHTS (AID 1578);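 further: HEK-293T reporter cells stimulated with the NOD1 agonist gamma-tri-DAP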
experimental conditions: NOD1-driven NF-kB luciferase reporter cells, at 4 µM
The campaign covered roughly 290,000 compounds. About 3,000 (1%) were called active. No stated cut-off is given here; in the data, active means inhibition mostly above about 36% (no sharp cut-off); inactive means mostly below about 34%. This excerpt belongs to a sample that is enriched for actives.
Classes used: y = active, n = inactive

1) CC(=O)N[C@@H](C)c1nc2ccccc2n1CCCN1CCN(c2nc(-c3ccc(C)cc3)cs2)CC1 | n
2) Oc1cc2c(cc1CN1CCN(c3cccc(C(F)(F)F)c3)CC1)CCC2 | n
3) CC(=O)CSc1ncnc2sc3c(c12)CCC3 | n
4) COCCn1c(C)cc(C(=O)CSc2nnc(C)s2)c1C | y
5) CCc1cc(/C(Cc2ccccn2)=N\Nc2ccccc2)c(O)cc1O | n
6) O=C(N/N=C/c1cccc(F)c1)c1ccc(Cl)cc1 | n
7) COCCn1c(C)cc(C(=O)CSc2nc3ccccc3s2)c1C | n
8) Cc1ccc(-c2csc(Nc3ccc(C(=O)O)cc3)[n+]2Cc2ccccc2)cc1 | n
9) O=C(NCc1ccccc1OC(F)(F)F)C1CCC(=O)N(CCc2ccccn2)C1 (configuration not stated) | n
10) CN(C)CCN(C(=O)c1ccc(N2C(=O)CCC2=O)cc1)c1nc2cc3c(cc2s1)OCO3 | n
11) O=[N+]([O-])c1ccccc1/C=N/Nc1nnc(-c2ccccc2)c(-c2ccccc2)n1 | n
12) CS(=O)(=O)N(CC(=O)N1CCCCC1)C1CCCCC1 | n
13) O=C(CCCN1C(=O)/C(=C/c2cccs2)SC1=S)Nc1ccccn1 | y
14) O=C(Nc1cccc(NC(=O)c2cncc(Br)c2)c1)c1cncc(Br)c1 | n
15) CCCCCCCC(O)CC(CC1CCCCC1)C(=O)NN (configuration not stated) | n
16) Cc1ccc2nc(Cl)c(/C=C/C(=O)c3ccco3)cc2c1 | n
17) Cc1ccc(C(=O)CSc2ncnc3sc4c(c23)CCCC4)cc1 | n
18) CC(C)(C)C(=O)COC(=O)c1cc2ccccc2cc1O | n
19) O=C1NC(=O)C2C1C(c1ccccc1)N1C3C(=O)NC(=O)C3C(c3ccccc3)N21 (configuration not stated) | n
20) O=c1[nH]c2ccc(Cl)cc2c(-c2ccccc2)c1SC(=S)N1CCCCC1 | n
21) Cc1ccccc1CN1CCC(n2nccc2NC(=O)c2cccnc2)CC1 | n
22) O=C(Cc1n[nH]c(=O)[nH]c1=O)N/N=C/c1c(O)ccc2ccccc12 | n

---

We begin with a simple list: items and their reported inhibition.
test name: NOD1 signaling inhibitors, primary screen, cell-based, luminescence, uHTS (AID 1578);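 further: HEK-293T reporter cells stimulated with the NOD1 agonist gamma-tri-DAP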
experimental conditions: NOD1-driven NF-kB luciferase reporter cells, at 4 µM, stronger effect = higher value
Hit rate of the full screen: of about 290,000 compounds, about 3,000 (1%) were called active. For the sample, actives were picked, then their nearest neighbours and some compounds at random.
readout label: inhibition (%)

1. CCOC(=O)C1=C(COC(=O)/C=C/c2ccccc2Cl)NC(=O)NC1C (stereo not given) | -17.4
2. CC1=CC(C)(C)N2C(=O)C3(C(C#N)=C(N)Oc4cc(C)oc(=O)c43)c3cccc1c32 (stereo not given) | -1.1
3. CCN(CC)S(=O)(=O)c1ccc2c(c1)c(=O)c(C(=O)NCCOC)cn2C | -12.6
4. Cc1ccc(C)c(OC(=O)c2cccnc2)c1 | -20.5
5. COc1cc2c3c(c1)C1(C(=O)N3C(C)(C)C=C2C)C(C#N)=C(N)Oc2cc(C)oc(=O)c21 (stereo not given) | -10.4
